Reference for the values: PubChem BioAssay (Tox21)

- Experiment notes: qHTS assay to identify small molecule agonists of the constitutive androstane receptor (CAR) signaling pathway - cell viability counter screen (AID 1224836); also: nearly all actives have a fitted effect of over 45% in size
- Measurement context: HepG2-CYP2B6-hCAR viability, CellTiter-Fluor, 23 h, PK11195 added to every well; series mostly up to 92.4 µM
Records with an inconclusive call do not appear. Activity calls are given as the source filed them. Calls follow the shape of the dose curve; as a rule, active = well fitted cell-killing curve with a large enough effect in the repeat runs; inconclusive = weak or mixed curves, or effect the other way; inactive = flat fitted curve, though single readings scatter.
Reply using exactly one outcome from y (active), n (inactive)

Query: Can you look up the reported call for ClC1=C(Cl)[C@]2(Cl)[C@H]3[C@H]([C@H]4C=C[C@H]3C4)[C@@]1(Cl)C2(Cl)Cl for me?
Reply: n

Query: What call does the record list for CC(O)C#N (configuration not stated) ?
Reply: n

Query: For CCN(CC)c1c([N+](=O)[O-])cc(C(F)(F)F)c(N)c1[N+](=O)[O-] , what call appears in the results of this test?
Reply: n

Query: recorded result category for CC[C@H]1C[C@@H]2C[C@H]3c4[nH]c5ccc(OC)cc5c4CCN(C2)[C@@H]13 in this test
Reply: n

Query: I would be grateful if you could indicate the recorded call for CCCCCCCCCCCCBr .
Reply: n

New cases:
Query: recorded result category for C[As+](C)(C)CC(=O)[O-] in this test
Reply: n

Query: Just curious, what result did CCCCOP(=O)(CCCC)OCCCC get here?
Reply: n

* * *

- Experiment notes: A CellTox Green Cytotoxicity Assay to monitor cytotoxicity in HepG2 cells - 16 hour (AID 1224876); also: nearly all actives have a fitted effect of over 45% in size
- Measurement context: CellTox Green fluorescence; series mostly up to 76.8 µM
Results filed as inconclusive are left out. Calls of active or inactive are those of the source. Calls come from the whole dose curve; as a rule, active = well fitted activation curve with a large enough effect in the repeat runs; inconclusive = weak or mixed curves; inactive = flat fitted curve, though single readings scatter.
Please state which outcome applies, choosing from active, inactive

Query: Please state the recorded outcome for this molecule: Clc1ccc(C(c2ccccc2Cl)C(Cl)(Cl)Cl)cc1 (centres undefined)
Reply: inactive

Query: Recorded test call requested for O=C1C=CC(=O)c2ccccc21
Reply: active

Query: How did this test come out for ClC1=C(Cl)[C@]2(Cl)[C@@H]3[C@@H]4C[C@@H]([C@H]5O[C@@H]45)[C@@H]3[C@@]1(Cl)C2(Cl)Cl ?
Reply: active

Query: Name the outcome recorded for CCOP(=S)(OCC)SCS(=O)(=O)CC in the assay.
Reply: inactive

Query: Which outcome was entered for the molecule Cc1ccc(CCl)cc1 in this test?
Reply: inactive

Others:
Query: Hello, I am checking results. What call was entered for CCN ?
Reply: inactive

Query: Dear all, I need the recorded test outcome for Cc1ccc(OP(=O)(Oc2ccccc2)Oc2ccccc2)cc1 , thank you.
Reply: inactive

Query: Returns: the outcome recorded for COC[C@H](C)N(C(=O)CCl)c1c(C)csc1C in this assay.
Reply: inactive

Query: Would you mind telling me which call this test gave CCCCOP(=O)(CCCC)OCCCC ?
Reply: inactive

Query: Dear colleague, could you share the recorded outcome for N#CCc1ccc(Cl)cc1 when you have a moment?
Reply: inactive

Query: Assay outcome for COC(=O)N(C(=O)N1CO[C@@]2(C(=O)OC)Cc3cc(Cl)ccc3C2=N1)c1ccc(OC(F)(F)F)cc1 : what was it?
Reply: inactive

Query: What did this assay record as the result for c1ccc(Nc2ccc3ccccc3c2)cc1 ?
Reply: inactive

Query: Each molecule tested received a call. Report the one for CCc1ccccc1C .
Reply: inactive

* * *

- Experiment notes: qHTS RealTime-Glo MT Cell Viability Assay in HepG2 cells - 24 hour (AID 1224867); also: nearly all actives have a fitted effect of over 50% in size
- Measurement context: RealTime-Glo luminescence; series mostly up to 76.8 µM
Results filed as inconclusive are left out. The source made the active and inactive calls. The call rests on the fitted dose curve; in most records, active means well fitted cell-killing curve with a large enough effect in the repeat runs; inconclusive means weak or mixed curves; inactive means flat fitted curve, though single readings scatter.
Classes to choose from: 1 (active), -1 (inactive)

These solved cases illustrate the format of a correct answer.
Query: Assay result, entry N#C/C=C/c1ccccc1 — outcome?
Reply: -1

Query: For this compound, state the assay outcome: c1cc[c]([Sb]([c]2ccccc2)[c]2ccccc2)cc1
Reply: -1

Query: Record lookup: outcome of this test for CN(C)CCc1c[nH]c2cccc(O)c12 ?
Reply: -1

Query: How was c1ccc(Nc2ccc3ccccc3c2)cc1 classified in this test?
Reply: -1

Query: So what was the verdict on COc1cccc2c1C(=O)c1c(O)c3c(c(O)c1C2=O)C[C@@](O)(C(=O)CO)CC3OC1CC(N2CCOC(OC)C2)C(O)C(C)O1 (some centres not stated) in this test?
Reply: 1

***
Query: Test call for this compound, please: Nc1ccccc1C(=O)Oc1ccc2ccccc2c1
Reply: -1

Query: Can you look up the reported call for O=C(CBr)c1ccc(O)cc1 for me?
Reply: -1
